Just for reference, the supplement of paper PMC7877785 is where these values come from.

method_notes: self-splicing fitness, log relative to wild type (ln ratio); higher = more splicing; Tetrahymena group I intron in knt gene, E. coli kanamycin selection, DiMSum; sequences stand for … in CUCUCU…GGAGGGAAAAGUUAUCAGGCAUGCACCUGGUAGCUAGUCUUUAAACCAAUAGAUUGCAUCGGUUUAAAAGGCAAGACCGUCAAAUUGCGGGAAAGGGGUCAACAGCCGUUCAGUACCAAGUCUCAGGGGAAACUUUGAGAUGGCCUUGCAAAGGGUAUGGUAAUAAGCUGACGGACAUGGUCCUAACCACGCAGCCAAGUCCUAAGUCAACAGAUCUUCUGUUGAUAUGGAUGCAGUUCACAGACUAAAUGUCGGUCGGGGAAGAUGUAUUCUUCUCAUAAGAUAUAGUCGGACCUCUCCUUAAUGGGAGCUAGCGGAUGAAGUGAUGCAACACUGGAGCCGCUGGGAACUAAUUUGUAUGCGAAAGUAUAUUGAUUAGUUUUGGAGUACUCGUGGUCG;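 note: selection with 25 µg/mL kanamycin versus none on LB agar overnight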
details: 30 °C
rule met means recorded self-splicing fitness (ln) is -2 or above; rule not met means it is below -2.

INSERT INTO results (construct_sequence, cat) VALUES
  ('UGUCAGCAAUAUUACGCGUG', 'rule met'),
  ('CGGGAGCAAUAUUACGACGU', 'rule not met'),
  ('UAUUAGCAAUAUUACGGUUA', 'rule met'),
  ('GACCAGCAAUAUUACGUCCG', 'rule not met'),
  ('AAGUAGCAAUAUUACGUUGC', 'rule not met'),
  ('GCGAAGCAAUAUUACGGCGA', 'rule met'),
  ('GACCAGCAAUAUUACGGCAG', 'rule not met'),
  ('ACUGAGCAAUAUUACGCAAU', 'rule not met'),
  ('CCGCAGCAAUAUUACGGAGC', 'rule not met'),
  ('AUUUAGCAAUAUUACGAAUA', 'rule not met'),
  ('UAACAGCAAUAUUACGGAAG', 'rule not met'),
  ('CGCCAGCAAUAUUACGAAAU', 'rule not met'),
  ('AAUUAGCAAUAUUACGCAGA', 'rule met'),
  ('UAAAAGCAAUAUUACGACUU', 'rule met'),
  ('CUAAAGCAAUAUUACGUGGU', 'rule not met'),
  ('AUUCAGCAAUAUUACGGGCG', 'rule met'),
  ('UACGAGCAAUAUUACGCCUA', 'rule met'),
  ('CAGAAGCAAUAUUACGUGAG', 'rule met'),
  ('GUUUAGCAAUAUUACGCUGG', 'rule not met'),
  ('AAGUAGCAAUAUUACGACCA', 'rule met'),
  ('GAAAAGCAAUAUUACGGACC', 'rule met'),
  ('UUCGAGCAAUAUUACGGUCC', 'rule met'),
  ('UACCAGCAAUAUUACGAAGU', 'rule not met'),
  ('GCCCAGCAAUAUUACGUCAC', 'rule not met'),
  ('CCUAAGCAAUAUUACGUCGC', 'rule not met'),
  ('GCGCAGCAAUAUUACGGUGG', 'rule met'),
  ('UCUCAGCAAUAUUACGGUAU', 'rule not met');
